Normal skin Response (1 μmol) overview
Test system: normal skin of CD Hairless male rats
Type: in vivo, rat
condition notes: rat, in vivo

compound: CCCOC(=O)CCCCC1=C(C)C2=Cc3c(CC)c(C)c4[n]3[Ga-2]35([Cl])[n]6c(c(C)c(CCCCC(=O)OCCC)c6=CC1=[N+]23)=CC1=[N+]5C(=C4)C(CC)=C1C [Example 56]
assayed target: normal skin of CD Hairless male rats
Normal skin Response (1 μmol) [h]: 24

compound: CCOC(=O)CCCCC1=C(C)C2=Cc3c(CC)c(C)c4[n]3[Al-2]35([Cl])[n]6c(c(C)c(CCCCC(=O)OCC)c6=CC1=[N+]23)=CC1=[N+]5C(=C4)C(CC)=C1C [Example 54]
assayed target: normal skin of CD Hairless male rats
Normal skin Response (1 μmol) [h]: 24

compound: COC(=O)CCC1=C(C)c2cc3[n-]c(cc4nc(cc5[n-]c(cc1n2)c(CCC(=O)OC)c5C)C(Br)=C4C)c(Br)c3C.[Cl-].[Ga+3] [Example 39]
assayed target: normal skin of CD Hairless male rats
Normal skin Response (1 μmol) [h]: 6

compound: CCOC(=O)CCCCC1=C(C)c2cc3[n-]c(cc4nc(cc5[n-]c(cc1n2)c(CCCCC(=O)OCC)c5C)C(C)=C4CC)c(C)c3CC.[Cl-].[In+3] [Example 52]
assayed target: normal skin of CD Hairless male rats
Normal skin Response (1 μmol) [h]: 48

* * *

Tested on: normal uninjured rat carotid arteries (medial and adventitial cell populations)
experiment summary: In vivo rat carotid artery acellularity after PDT
Parameters: species or system Sprague Dawley rats
condition notes: 4 hrs post administration
accelularity in rat artery at a four hour treatment point overview
measured property: accelularity in rat artery at a four hour treatment point

smiles repr: CCC1=C(C)C2=Cc3c(CC)c(C)c4[n]3[Ga-2]35([Cl])[n]6c(c(C)c(CCC(=O)O)c6=CC6=[N+]3C(=C4)C(C)=C6CCC(=O)O)=CC1=[N+]25
assay value: 15%
--
smiles repr: CCC1=C(CC)C2=[N+]3C1=Nc1c(CC)c(CC)c4[n]1[Ga-2]31([OH])[n]3c(c(C)c(CCC(=O)[O-])c3=CC3=[N+]1C(=C4)C(C)=C3CCC(=O)[O-])=C2.[Na+].[Na+]
assay value: 10%
--
smiles repr: CCC1=C(CC)C2=[N+]3C1=Nc1c(CC)c(CC)c4[n]1[Ga-2]31([Cl])[n]3c(c(C)c(CCC(=O)O)c3=CC3=[N+]1C(=C4)C(C)=C3CCC(=O)O)=C2
assay value: 30%
--
smiles repr: CCC1=C(CC)c2nc1cc1[nH]c(cc3nc(cc4[nH]c(n2)c(CC)c4CC)C(C)=C3CCC(=O)O)c(CCC(=O)O)c1C
assay value: 0%
--
smiles repr: CCC1=C(C)c2cc3[n-]c(cc4nc(cc5[n-]c(cc1n2)c(C)c5CC)C(C)=C4CCC(=O)[O-])c(CCC(=O)[O-])c3C.[Ga+3].[Na+].[Na+].[OH-]
assay value: 10%

* * *

Test system: normal skin of CD Hairless male rats
Format: in vivo, rat
condition notes: rat, in vivo
measured property: Normal skin Response (1 μmol) (h)

smiles repr: CCC1=C(C)c2cc3[n-]c(cc4nc(cc5[n-]c(cc1n2)c(C)c5CC)C(C)=C4CCC(=O)OCCCCl)c(CCC(=O)OCCCCl)c3C.[Cl-].[Ga+3]
unit annotation: h
assay value: 96

smiles repr: CCC1=C(CC)C2=Nc3c(CC)c(CC)c4[n]3[In]([Cl])[n]3c(c(C)c(CCCOC)c3=CC3=NC(=C4)C(C)=C3CCCOC)=CC1=N2
unit annotation: h
assay value: 96

smiles repr: CCC1=C(CC)C2=[N+]3C1=Nc1c(CC)c(CC)c4[n]1[In-2]31([Cl])[n]3c(c(C)c(CCC(=O)OC)c3=CC3=[N+]1C(=C4)C(C)=C3CCC(=O)OC)=C2
unit annotation: h
assay value: 48

smiles repr: CCC1=C(CC)C2=Nc3c(CC)c(CC)c4[n]3[In]([Cl])[n]3c(c(C)c(CCC(=O)NC)c3=CC3=NC(=C4)C(C)=C3CCC(=O)NC)=CC1=N2
unit annotation: h
assay value: 48

smiles repr: C=Cc1c(C)c2cc3nc(c(CC(=O)OC)c4[n-]c(cc5nc(cc1[n-]2)C(C)=C5CC)c(C)c4C(=O)NC)C(CCC(=O)OC)=C3C.[Cl-].[Ga+3]
unit annotation: h
assay value: 6

smiles repr: CCOC(=O)CCCCC1=C(C)c2cc3[n-]c(cc4nc(cc5[n-]c(cc1n2)c(CCCCC(=O)OCC)c5C)C(C)=C4CC)c(C)c3CC.[Cl-].[Ga+3]
unit annotation: h
assay value: 6

smiles repr: COC(=O)CCC1=C(C)C2=Cc3c(C)c(CN(C)C)c4[n]3[Pt][n]3c(c(C)c(CCC(=O)OC)c3=CC1=N2)=CC1=NC(=C4)C(C)=C1CN(C)C
unit annotation: h
assay value: 48

smiles repr: CCC1=C(C)c2cc3[n-]c(cc4nc(cc5[n-]c(cc1n2)c(C)c5CCC(=O)OCCF)C(CCC(=O)OCCF)=C4C)c(C)c3CC.[Cl-].[Ga+3]
unit annotation: h
assay value: 24

smiles repr: CCC1=C(CC)C2=[N+]3C1=Nc1c(CC)c(CC)c4[n]1[Ga-2]31([Cl])[n]3c(c(C)c(CCC(=O)NC)c3=CC3=[N+]1C(=C4)C(C)=C3CCC(=O)NC)=C2
unit annotation: h
assay value: 48

smiles repr: CCC1=C(CC)C2=Nc3c(CC)c(CC)c4[n]3[Sn]([Cl])([Cl])[n]3c(c(C)c(CCC(=O)NC)c3=CC3=NC(=C4)C(C)=C3CCC(=O)NC)=CC1=N2
unit annotation: h
assay value: 96

smiles repr: CCC1=C(C)C2=Cc3c(CC)c(C)c4[n]3[Ga-2]35([Cl])[n]6c(c(C)c(C(=O)NC)c6=CC6=[N+]3C(=C4)C(C)=C6CCC(=O)O)=CC1=[N+]25
unit annotation: h
assay value: 6

* * *

Test system: V79 (Chinese Hamster Lung Fibroblasts) cells
experiment summary: In vitro cytotoxicity assay (light EC50, Alamar blue)
Assay type: cell-based
condition notes: Table 4 azaporphyrins, 575 nm (Pt azaporphyrins 532 nm), 1.25 J/cm^2, read-out: In Vitro EC(50)
EC50 overview

compound: CCC1=C(CC)C2=Nc3c(CC)c(CC)c4[n]3[Ga]([Cl])[n]3c(c(C)c(CCC(=O)NCCOCCO)c3=CC3=NC(=C4)C(C)=C3CCC(=O)NCCOCCO)=CC1=N2
unit annotation: nM
EC50: 1300

compound: CCC1=C(CC)c2nc1cc1[n-]c(cc3nc(cc4[n-]c(n2)c(CC)c4CC)C(C)=C3CCCOC)c(CCCOC)c1C.[Cl-].[Ga+3]
unit annotation: nM
EC50: 1000

compound: CCC1=C(CC)C2=[N+]3C1=Nc1c(CC)c(CC)c4[n]1[Ga-2]31([OH])[n]3c(c(C)c(CCC(=O)O)c3=CC3=[N+]1C(=C4)C(C)=C3CCC(=O)O)=C2.[Na+].[Na+]
unit annotation: nM
EC50: 500

compound: CCC1=C(C)C2=NC1=Nc1c(C)c(CC)c3[n]1[Ga]([Cl])[n]1c(c(C)c(CCC(=O)NC)c1=CC1=NC(=C3)C(C)=C1CCC(=O)NC)=C2
unit annotation: nM
EC50: 520

compound: CCC1=C(CC)C2=Nc3c(CC)c(CC)c4[n]3[Sn]([Cl])([Cl])[n]3c(c(C)c(CCC(=O)NC)c3=CC3=NC(=C4)C(C)=C3CCC(=O)NC)=CC1=N2
unit annotation: nM
EC50: 500

compound: COC(=O)CCC1=C(C)C2=Cc3c(C)c(C(C)OC)c4[n]3[Ga-2]35([Cl])[n]6c(c(C)c(CCC(=O)OC)c6=CC1=[N+]23)=CC1=[N+]5C(=N4)C(C)=C1C(C)OC (mixture of isomers)
unit annotation: nM
EC50: 1000

compound: C=CC1=C(C)c2nc1cc1[n-]c(cc3nc(cc4[n-]c(n2)c(C)c4CCC(=O)OC)C(CCC(=O)OC)=C3C)c(C=C)c1C.[Cl-].[Ga+3]
unit annotation: nM
EC50: 400

compound: CCOC(=O)CCC1=C(C)C2=Cc3c(CC)c(CC)c4[n]3[Ga-2]35([Cl])[n]6c(c(C)c(CCC(=O)OCC)c6=CC1=[N+]23)=CC1=[N+]5C(=N4)C(CC)=C1CC
unit annotation: nM
EC50: 400

compound: CCC1=C(CC)C2=Nc3c(CC)c(CC)c4[n]3[In]([Cl])[n]3c(c(C)c(CCC(=O)NC)c3=CC3=NC(=C4)C(C)=C3CCC(=O)NC)=CC1=N2
unit annotation: nM
EC50: 70

compound: CCC1=C(CC)C2=[N+]3C1=Nc1c(CC)c(CC)c4[n]1[Sn-2]31([Cl])([Cl])[n]3c(c(C)c(CCC(=O)OC)c3=CC3=[N+]1C(=C4)C(C)=C3CCC(=O)OC)=C2
unit annotation: nM
EC50: 400

compound: CCC1=C(C)c2nc1cc1[n-]c(cc3nc(cc4[n-]c(n2)c(C)c4CCC(=O)NCCCO)C(CCC(=O)NCCCO)=C3C)c(CC)c1C.[Cl-].[Ga+3]
unit annotation: nM
EC50: 500

compound: CCC1=C(C)c2nc1cc1[n-]c(cc3nc(cc4[n-]c(n2)c(C)c4CCC(=O)OC)C(CCC(=O)OC)=C3C)c(CC)c1C.[Cl-].[Ga+3]
unit annotation: nM
EC50: 400
